B1: library; a variant is named by its letters at N, in order (parent)
chain: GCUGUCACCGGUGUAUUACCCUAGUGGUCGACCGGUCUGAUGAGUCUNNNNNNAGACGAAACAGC

variants of: B1; test: normalized RNA/DNA level without ligand (relative to sTRSVctl = 100) (log10 (% of sTRSVctl)); ligand: hypoxanthine (xanthine aptamer); higher = less ribozyme self-cleavage, higher mRNA level; conditions: HEK293T, reporter: mCherry (pCS4076), ligand present: no
QUANTITY_MEASURED: normalized RNA/DNA level without ligand (log10)

Would you mind giving normalized RNA/DNA level without ligand (log10) for every variant in the list below?
1. UCCUCU
2. AGAUGU
3. AUCGCG
4. CUACAU
5. CGAUCC
6. CCUGCA

Response given:
1: 1.98; 2: 1.56; 3: 1.41; 4: 1.8; 5: 1.9; 6: 1.9

Would you mind giving normalized RNA/DNA level without ligand (log10) for every variant in the list below?
1. UGCCCG
2. GUCGAU
3. AUCAGC
4. UCAGGU
5. UAGUAA

Response given:
1.83
1.76
1.95
1.65
1.77
